- Tested on: CX-1
- MEASUREMENT DESCRIPTION: In vitro inhibition of growth of human carcinoma CX-1 cell line (clonogenic assay).
- Type: functional, cell-based
- COND: cx-1
Task for the reader: assign each of the following compounds its reported pIC50.
// pIC50: -log10(molar conc.)

Form: compound = CC(=O)[O-].CCn1c(=O)/c(=C2\Sc3ccccc3N2C)s/c1=C\c1cccc[n+]1CC ; pIC50 = 5.96

Form: compound = CCn1c(=O)/c(=C2\Sc3ccccc3N2C)s/c1=C\c1cccc[n+]1CC.[I-] ; pIC50 = 6.10

---

Task for the reader: assign each of the following compounds its reported pIC50.
- Test system: KB
- MEASUREMENT DESCRIPTION: In vitro inhibition of growth of KB cells (cytotoxic assay).
- Format: functional, cell-based, Homo sapiens
- COND: Homo sapiens, KB
// pIC50: -log10(molar conc.)

Form: compound = CCn1c(=O)/c(=C/C=C2/N(C)c3ccccc3C2(C)C)s/c1=C\c1oc2c3ccccc3ccc2[n+]1CC.Cc1ccc(S(=O)(=O)[O-])cc1 ; pIC50 = 6.57

Form: compound = CCN1C=CC=C/C1=C\C=c1/s/c(=C\c2sc3ccc4ccccc4c3[n+]2CC)n(CC)c1=O.[Cl-] ; pIC50 = 6.11

Form: compound = CCN1CCS/C1=C\C=c1/s/c(=C\c2sc3c4ccccc4ccc3[n+]2CC)n(CC)c1=O ; pIC50 = 6.49

Form: compound = CC(=O)[O-].CCn1c(=O)/c(=C2\Sc3ccccc3N2C)s/c1=C\c1sc2ccccc2[n+]1CC ; pIC50 = 7.22
